assay-explanation: yeast display, Sf9 membrane polyspecificity reagent, FACS + sequencing; frameworks hold sequencing errors
property-label: polyreactivity (PSR sort gate)

Example entries begin here.
QVQLVESGGGLVQAGGSLRLICAASGSTIGSYVMGWYRTAPGKERELVAAITSGARTNYADSVKGRFTISRDNAKNTVYLQMNSLKPEDTAVYYCAKYYRPAYVYRIAGYYWGQGTQVTVSS    high polyreactivity
QVQLVDSGGGLVQAGGSLRLSCAASGRTFDVYTMGWYRQAPGKERELVAAINGGGSTYYADSVKGRFTISRDNAKNTVYLQMNTLKPEDTAVYYCAAKLRAGRSSYYWGQGTQVTVSS    high polyreactivity
QVQLVESGGGLVQAGGSLRLSCAASGRTFGPYAMGWYRQAPGKERELVAAISRSGSSTYYADSVKGRFTISRDTGKNNVYLQMNSLKPEDTAVYDCAVARSSPEYYYWGQGTQVTVSS    high polyreactivity
QVQLVDSGGGLVQAGGSLRLICAASGFIFTDYAMGWYRQAPGKEREFFAAIDWSGGNTYYADSVKGRFTISRDNAKNTVYLQMKSLKPEDTAVYYCAASGSAREYDYWGQGTQVTVSS    low polyreactivity

// next entry
**Q:** Quick one: give measured polyreactivity (PSR sort gate) for "QVQLVESGGGLVQAGGSLRLSCAASGSTFSSNPMGWYRQAPGKERELVAAISVNGGSTNYADSVKGRFTISRDNAKNTVYLQMNSLKPVDTAVYYCAAEPAKVAFYRGDYWGQGTQVTVSS"
**A:** low polyreactivity

---

assay-explanation: yeast display, Sf9 membrane polyspecificity reagent, FACS + sequencing; frameworks hold sequencing errors
property-label: polyreactivity (PSR sort gate)

Example entries begin here.
QVHLVDSGGGLVQAGGSLRLSSADSGSTFAANAIGWYRQAPGKERELVAAITSSGGSTYYADSVKGRFTISRDNATNTVYLQKNSLKPEDTAVYYCNKDMERYVRIYDSWGQGSQVTVSS    low polyreactivity
QVQLVESGGGLVQAGGSLRLSCADSGFIFAYYVMGWYRQAPGKERELVAAISRGGGSTYYADSVKGRFTISRDNAKYTVYLQMNSLKPEDTAVYYCATYSHALRYDYWGQGTQVTVSS    high polyreactivity
QVQLVESGGGLVQAGGSLRLSCSASGIIFIYYGMGWYRKAPGKERELVAAISRSGGRTYYADSVKGRFTISRDNANNTVYFHMNSLKPEDTAVYYCANTYTQTGFDYWGQGTQVTVSS    high polyreactivity
QDQLVESGGGLVQAVGSLRLSCAASGSIFDVNALGWYRQAPGKERELVAAISQRGTRTYYADSVKGRFTISRDNAKNTVYLQMNSLKPEDTAVYYCNRGGWRQYDSWGQGTQVTVSS    high polyreactivity

**Q:** Quick one: give measured polyreactivity (PSR sort gate) for "QVQLVESGGGLVQAGGSLRLSCAASGSIITGYAMGWYRQAPGKERELVAAITGNAGSTYYADSVKGRFTISRDNAKNTVYLQMNSLKPEDTAVYYCNARSWYVRVDYWGQGTQVTVSS"
**A:** low polyreactivity

---

assay-explanation: yeast display, Sf9 membrane polyspecificity reagent, FACS + sequencing; frameworks hold sequencing errors
property-label: polyreactivity (PSR sort gate)

Example entries begin here.
QVQLVESGGGLVQAGGSLRLSCAASGFTLVKYVMGWYIQAPGKEREFVATIRRRGGNTYYADSVKGRFTISRDNAKNTVYLQMNSLKPEDTAVYYCAAKKRSDLRTGDMEYWGQGTQVTVSS    high polyreactivity
HVQLVESGGGLVQAGGSLRLSSTASGSTFGYYAMGWNRQAPGKERELVAAISGIGGSTYYADSVKGRFTISRDNAKNTVYLQMNSLKPEDTAVYFCAADLYYVTWDYNYWGQGTQVTVSS    low polyreactivity
QVQLVESGGGLVQAGGSLRLSCAASGSIFEPNAMGWYRQAPGKERELVAAISWNDGDTYYADSVKGRFTISRDNAKNTVYLQMNCLKPEDTAVYYCAAETGYAFDYWGQGTQVTVSS    low polyreactivity
QVQLVESGGGLVQAGGSLRLSCAASGSTFAVYAMGWYRQAPGKVRELVAAMRYSGGSTYADSVKGRFTISRDNAKNTVYLQMNSLKPEDTAVYYCAAYVYSLGGEYGYWGQGTHVTVSS    high polyreactivity
EVQLVESGGGLVQSGGSLRLSSAASGSIFRYYAMGWYRQAPGKERELVAAITGSTGRTYYADSVKGRFTISRDNAKNTVYLQMNSLKPEDTAVYYCAARSRYYEYDYWGQGTQVTVSS    low polyreactivity
QVQLVESGGGLVQAGGSLRLTCAASGTIFVRLDMGWYRQAPGNEREFVATIGSGSSTYYADSVKGSFTISRDNVKNTVYLQMNSLKPEDTAVYYCAVSAAEQSRHYYWDQGTQVTVSS    low polyreactivity
QVQLVESGGGLVQAGGSLRLSCAASGFIFYPYAMGWYRQAPGKERELVAAITWSGSRTYYADSVKGRFTISRDNAKHTVYLQMNSLKPEDTAVYYCNKYPQPTAYDYWGQGTQVTVSS    high polyreactivity
QVQLVESGGGLVQAGGSLRLSCAASGSIFRSYAMGWYRQAPGKERELVSAIRGSDGNTYYADSVKGRFTISRDNAKNTVYLQMNSLKPEDTAVYYCNARSYGYRTSRARYNYWGQGTQVTVSS    high polyreactivity
QVQLVESGGGLVQAGGSLRLSCAASGRIFAFYAMGWSRPAPGKERELVAAITSGGSTKYADSVKGRFTISRDNAKNTVYLQMNSLKPEDTAVYYCAAQYRYQRYSYAMEYWGQCTQVTVSS    high polyreactivity
QVQLVESGGGLVQAGGSLRLSCASYGSIFAYYTMGWYRQAPGKARELVATISSRGGSKNYADSVKGRFTISRDNAKNPVYLQMNSLRPEDTAVYYCYAYHYQSGITVSEYDYWGQGTQVTVSS    high polyreactivity

**Q:** Quick one: give measured polyreactivity (PSR sort gate) for "QVQLVESGGGLVQAGGSLRLSCAASGSIFRGNAMGWYRQAPGKERELVAAINKSGGSTYYADSVKGRFTISRDNAKNTVYLQMNSLKPEDTAVYYCAAVYKRLQPYGYWGQGTQVTVSS"
**A:** high polyreactivity

**Q:** Quick one: give measured polyreactivity (PSR sort gate) for "QVQLVYSGGGLVKAGGTLRLSCAASGSTFTPNAMGWYRQAPGKERELVAAINWSDSSTYYADSVKGRFTISRDNAKNTVYLQMNSLIPEDTAVYYCAAAAQYGQLQVPVYYWGEGTQVTVSS"
**A:** low polyreactivity

**Q:** Quick one: give measured polyreactivity (PSR sort gate) for "QVHLVESCGGLVQAGGSLRLSCAASGFTFYTYTMGWYRQAPGKERELVAVISRSGGSTYYADSVKGRFTISRDNAKNTVYLQMNSLKPEDTAVYYCNAGYWRFIDSYDYWGQGTQVTVSS"
**A:** high polyreactivity

**Q:** Quick one: give measured polyreactivity (PSR sort gate) for "QVQLVESGGGLVQAGGSLRLSCAASGNIFVYYAMGWYRQAPGKERELVASITTSGGSTYYADSVKGRFTISRDNAKNTVYLQMNSLKPEDTAVYYCAALYYYWMDYWGQGTQVTVSS"
**A:** low polyreactivity
